Listed here are compounds together with their documented IC50.
Test system: A549 (human lung carcinoma epithelial cells)
assay.method.text: MTT cell viability assay, A549
condition: Homo sapiens, A549, 24 h, read-out: IC50, 24 h, A549
Respond with the bare value in µg/mL.

Solved entries:
compound: CC[C@H](CC[C@@H](C)[C@H]1CC[C@H]2[C@@H]3CC=C4C[C@@H](O[C@@H]5O[C@H](CO)[C@@H](O)[C@H](O)[C@H]5O)CC[C@]4(C)[C@H]3CC[C@]12C)C(C)C [Daucosterol, β-sitosterol-3-O-β-glucopyranoside]
readout.units: µg/mL
test.value: 180

compound: O=c1c(O[C@@H]2O[C@H](CO)[C@H](O)[C@H](O)[C@H]2O)c(-c2ccc(O)c(O)c2)oc2cc(O)cc(O)c12 [Hyperoside, Quercetin-3-O-β-galactopyranoside]
readout.units: µg/mL
test.value: 600

compound: COc1cccc2c1C(=O)c1c(O)c3c(c(O)c1C2=O)C[C@@](O)(C(=O)CO)C[C@@H]3O[C@H]1C[C@H](N)[C@H](O)[C@H](C)O1 [Doxorubicin, reference compound]
readout.units: µg/mL
test.value: 10

Need IC50 of COc1cc(O[C@@H]2O[C@H](CO)[C@@H](O)[C@H](O)[C@H]2O)cc(O)c1C(C)=O , thanks.
250

Origin of the recorded values: paper PMC11904701
